Attribution: ChEMBL document CHEMBL2057089

target: Mitogen-activated protein kinase 14 (Homo sapiens); experiment: Inhibition of human recombinant P38alpha-mediated ATF2 phosphorylation after 1 hr
Sequence (Q16539 whole entry): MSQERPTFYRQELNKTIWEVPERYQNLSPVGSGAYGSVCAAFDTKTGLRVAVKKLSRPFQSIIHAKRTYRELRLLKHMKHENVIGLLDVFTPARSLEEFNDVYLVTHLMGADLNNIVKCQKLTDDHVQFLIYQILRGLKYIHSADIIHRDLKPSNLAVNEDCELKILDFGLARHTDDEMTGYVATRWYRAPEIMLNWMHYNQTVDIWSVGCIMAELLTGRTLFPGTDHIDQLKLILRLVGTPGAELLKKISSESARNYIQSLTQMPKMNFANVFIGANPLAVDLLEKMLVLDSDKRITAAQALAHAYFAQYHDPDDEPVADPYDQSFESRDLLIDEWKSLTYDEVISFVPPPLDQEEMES
pIC50: −log10 of the molar value.
Mark Fulfilled for reported pIC50 of 8 or greater; mark Not fulfilled for anything smaller.

Cc1ccc(-n2nc(C(C)(C)C)cc2NC(=O)NCc2cc(C(F)(F)F)ccc2Oc2ccnc(N3CCOCC3)n2)cc1: Not fulfilled
Cc1ccc(-n2nc(C(C)(C)C)cc2NC(=O)NCc2cc(Cl)ccc2Oc2ccnc(N3CCOCC3)n2)cc1: Fulfilled
Cc1ccc(-n2nc(C(C)(C)C)cc2NC(=O)NCc2cc(F)cc(F)c2Oc2ccnc(N3CCOCC3)n2)cc1: Fulfilled
Cc1ccc(-n2nc(C(C)(C)C)cc2NC(=O)NCc2cc(F)ccc2Oc2ccnc(N3CCOCC3)n2)cc1: Fulfilled
Cc1ccc(-n2nc(C(C)(C)C)cc2NC(=O)NCc2ccccc2Oc2ccnc(Cl)n2)cc1: Not fulfilled
Cc1ccc(-n2nc(C(C)(C)C)cc2NC(=O)NCc2ccccc2O)cc1: Not fulfilled

---

target: Mitogen-activated protein kinase 14 (Homo sapiens); test: Inhibition of human recombinant P38alpha-mediated ATF2 phosphorylation after 1 hr
pIC50: −log10 of the molar value.
Recorded measurements of pIC50, one per entry
MEASURED_METRIC: pIC50

Cc1ccc(-n2nc(C(C)(C)C)cc2NC(=O)NCc2cc(C)ccc2Oc2ccnc(N3CCOCC3)n2)cc1: 7.89
Cc1ccc(-n2nc(C(C)(C)C)cc2NC(=O)NCc2cc(F)cc(Cl)c2Oc2ccnc(N3CCOCC3)n2)cc1: 7.96
Cc1ccc(-n2nc(C(C)(C)C)cc2NC(=O)NCc2ccccc2Oc2ccnc(N3CCCCC3)n2)cc1: 7.89
Cc1ccc(-n2nc(C(C)(C)C)cc2NC(=O)NCc2ccccc2Oc2ccnc(N3CCOCC3)n2)cc1: 7.92
Cc1ccc(-n2nc(C(C)(C)C)cc2NC(=O)NCc2cc(F)cc(C)c2Oc2ccnc(N3CCOCC3)n2)cc1: 7.85
